Molecular target: T1, hVEGF-C (human, UniProt P49767)
T1 construct: unlabelled; also called human VEGF-C
T1 sequence (VEGF-C, looked up): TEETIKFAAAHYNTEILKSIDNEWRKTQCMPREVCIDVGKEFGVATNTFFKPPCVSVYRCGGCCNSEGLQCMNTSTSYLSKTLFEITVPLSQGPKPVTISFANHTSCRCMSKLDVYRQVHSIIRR
Experiment: phage competition ELISA: phage-displayed clone incubated with increasing soluble hVEGF-C, unbound phage captured on hVEGF-C coated plate, anti-M13-HRP, OD450
readout: pIC50
// scale note: pIC50 = -log10(conc_M); give the bare number

Enquiry: Looking for the measured pIC50 of VC4.3 (antibody, V domains shown, also called clone VC4.3) VH: EVQLVESGGGLVQPGGSLRLSCAASGFTFTYSWIHWVRQAPGKGLEWVGFISPGVGYSYYADSVKGRFTISADTSKNTAYLQMNSLRAEDTAVYYCARDADYDYAGWAFDYWGQGTLVTVSS VL: DIQMTQSPSSLSASVGDRVTITCRASQDVSTAVAWYQQKPGKAPKLLIYSASFLYSGVPSRFSGSGSGTDFTLTISSLQPEDFATYYCQQTYRIPYTFGQGTKVEIK , can you help?
Return: 8.57

Enquiry: Give the measured pIC50 of VC4.2 (antibody, V domains shown, also called clone VC4.2) VH: EVQLVESGGGLVQPGGSLRLSCAASGFTFTDNWIHWVRQAPGKGLEWVGVISPYSGATYYADSVKGRFTISADTSKNTAYLQMNSLRAEDTAVYYCARDADYAYAWWAFDYWGQGTLVTVSS VL: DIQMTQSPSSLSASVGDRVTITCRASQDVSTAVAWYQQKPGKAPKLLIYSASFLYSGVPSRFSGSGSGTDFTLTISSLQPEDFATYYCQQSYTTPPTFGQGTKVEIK .
Return: 8.58

Enquiry: Quick one: pIC50 for anti-VEGF-C IgG VC4 (antibody, V domains shown, Only the six HVRs are tied to this clone; also called clone VC4) VH: EVQLVESGGGLVQPGGSLRLSCAASGFTFTDNWIHWVRQAPGKGLEWVGVISPYSGATYYADSVKGRFTISADTSKNTAYLQMNSLRAEDTAVYYCARDADYDYAGWAFDYWGQGTLVTVSS VL: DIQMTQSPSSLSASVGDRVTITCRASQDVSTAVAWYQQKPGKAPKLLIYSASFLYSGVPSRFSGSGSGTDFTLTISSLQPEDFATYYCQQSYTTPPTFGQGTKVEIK ?
Return: 7.49
